Biological target: non-lysosomal-β-glucocerebrosidase (Homo sapiens, UniProt Q9HCG7)
Construct: whole cell extracts of MCF7 (a human breast carcinoma cell line) was used as the source of the enzyme; endogenous in cells; host or cells: MCF7 whole cell extract
Sequence (Q9HCG7 whole entry): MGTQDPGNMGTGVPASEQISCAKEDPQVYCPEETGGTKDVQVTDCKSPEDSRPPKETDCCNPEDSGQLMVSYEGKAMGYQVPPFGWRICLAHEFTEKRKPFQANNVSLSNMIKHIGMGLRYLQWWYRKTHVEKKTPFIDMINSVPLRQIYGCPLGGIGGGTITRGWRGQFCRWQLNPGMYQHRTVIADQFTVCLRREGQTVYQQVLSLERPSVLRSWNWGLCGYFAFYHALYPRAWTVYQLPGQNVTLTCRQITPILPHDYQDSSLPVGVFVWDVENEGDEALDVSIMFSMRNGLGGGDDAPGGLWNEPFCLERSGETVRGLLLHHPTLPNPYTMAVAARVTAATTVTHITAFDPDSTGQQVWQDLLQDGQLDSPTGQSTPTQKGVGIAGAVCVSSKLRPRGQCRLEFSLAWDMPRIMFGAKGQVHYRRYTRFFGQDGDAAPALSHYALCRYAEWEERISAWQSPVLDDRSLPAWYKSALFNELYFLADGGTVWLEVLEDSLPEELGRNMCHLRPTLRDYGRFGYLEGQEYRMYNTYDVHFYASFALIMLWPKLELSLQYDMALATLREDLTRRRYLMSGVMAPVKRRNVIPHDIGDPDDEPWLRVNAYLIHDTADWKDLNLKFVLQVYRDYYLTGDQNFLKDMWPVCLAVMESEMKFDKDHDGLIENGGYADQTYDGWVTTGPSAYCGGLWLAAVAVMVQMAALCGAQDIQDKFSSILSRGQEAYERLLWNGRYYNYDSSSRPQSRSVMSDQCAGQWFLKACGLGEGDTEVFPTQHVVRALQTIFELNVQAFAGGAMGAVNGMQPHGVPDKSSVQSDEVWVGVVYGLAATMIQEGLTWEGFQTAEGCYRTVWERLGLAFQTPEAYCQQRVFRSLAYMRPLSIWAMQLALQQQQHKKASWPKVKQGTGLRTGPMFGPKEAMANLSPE
Assay: Inhibition of non-lysosomal-β-glucocerebrosidase
Format: biochemical
Conditions: whole cell extracts of MCF7 as enzyme source; 5 mM 4-MU β-glucoside; pH 5.8
measured-metric: IC50 (µM)

I. CCCCCOc1ccc(CN2C[C@H](O)[C@@H](O)[C@H](O)[C@@H]2CO)cc1
II. CCCCOc1ccc(CN2C[C@H](O)[C@@H](O)[C@H](O)[C@@H]2CO)cc1
Req: Between I and II , which one has the lower reported IC50 value? Please identify the chosen entry by its label.
Resp: I
(I: 0.001 µM, II: 0.004 µM)

Reference source for all entries: patent US8071780B2
